# tgt: Hepatitis C virus serine protease, NS3/NS4A (Hepatitis C virus, UniProt A3EZI9+D2K2A8)
# Sequence (D2K2A8 whole entry): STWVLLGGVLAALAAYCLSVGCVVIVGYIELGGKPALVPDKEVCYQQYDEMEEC
# Sequence (A3EZI9 whole entry): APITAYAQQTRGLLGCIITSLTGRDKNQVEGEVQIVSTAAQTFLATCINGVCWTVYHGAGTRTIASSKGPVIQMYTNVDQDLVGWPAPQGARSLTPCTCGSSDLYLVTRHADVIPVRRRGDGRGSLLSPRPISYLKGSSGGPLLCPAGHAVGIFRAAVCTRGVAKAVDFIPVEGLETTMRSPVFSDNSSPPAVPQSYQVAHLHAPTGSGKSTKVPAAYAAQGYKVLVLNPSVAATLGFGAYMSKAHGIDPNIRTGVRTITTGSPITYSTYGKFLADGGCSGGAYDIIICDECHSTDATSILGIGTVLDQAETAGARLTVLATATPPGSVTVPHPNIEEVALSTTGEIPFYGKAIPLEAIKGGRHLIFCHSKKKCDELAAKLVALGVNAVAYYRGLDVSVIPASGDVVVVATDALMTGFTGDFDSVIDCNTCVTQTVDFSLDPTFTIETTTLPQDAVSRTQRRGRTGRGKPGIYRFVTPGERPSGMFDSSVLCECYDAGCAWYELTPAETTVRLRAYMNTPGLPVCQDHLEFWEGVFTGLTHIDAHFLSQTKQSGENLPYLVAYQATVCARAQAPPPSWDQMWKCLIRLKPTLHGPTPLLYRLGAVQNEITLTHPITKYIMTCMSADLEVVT
# procedure-text: Inhibition of HCV serine protease NS3/NS4A in the presence of EDTA.
# Format: protein-complex assay, Hepacivirus hominis
quantity: Ki (µM)

Examples with answers:
[
  {
    "compound": "Cc1ccc2nc(Cc3nc4ccc(C(=O)NC(CP(=O)(O)O)C(=O)O)cc4n3C)[nH]c2c1 (stereo not drawn)",
    "tgt": "Hepatitis C virus serine protease, NS3/NS4A (Hepatitis C virus, UniProt A3EZI9+D2K2A8)",
    "Ki (µM)": 98
  },
  {
    "compound": "Cc1cccc2[nH]c(C(F)(F)c3nc4ccc(C(=O)NC(CP(=O)(O)O)C(=O)O)cc4n3C)nc12 (stereo not drawn)",
    "tgt": "Hepatitis C virus serine protease, NS3/NS4A (Hepatitis C virus, UniProt A3EZI9+D2K2A8)",
    "Ki (µM)": 66
  },
  {
    "compound": "Cn1c(Cc2nc3c(F)c(F)c(F)c(F)c3[nH]2)nc2ccc(C(=O)NC(CP(=O)(O)O)C(=O)O)cc21 (stereo not drawn)",
    "tgt": "Hepatitis C virus serine protease, NS3/NS4A (Hepatitis C virus, UniProt A3EZI9+D2K2A8)",
    "Ki (µM)": 17
  },
  {
    "compound": "Cn1c(Cc2nc3ccc(C(=O)NC(CP(=O)(O)O)C(=O)O)cc3[nH]2)nc2ccc(C(=O)NC(CP(=O)(O)O)C(=O)O)cc21 (stereo not drawn)",
    "tgt": "Hepatitis C virus serine protease, NS3/NS4A (Hepatitis C virus, UniProt A3EZI9+D2K2A8)",
    "Ki (µM)": 21
  }
]

(P) Cn1c(Cc2nc3cc(C(N)=O)ccc3[nH]2)nc2ccc(C(=O)NC(CP(=O)(O)O)C(=O)O)cc21 (stereo not drawn)
(Q) Cn1c(C(F)(F)c2nc3ccccc3[nH]2)nc2ccc(C(=O)NC(CP(=O)(O)O)C(=O)O)cc21 (stereo not drawn)
(R) Cn1c(C(F)(F)c2nc3c(F)cc(F)cc3[nH]2)nc2ccc(C(=O)NC(CP(=O)(O)O)C(=O)O)cc21 (stereo not drawn)
Request: Put the compounds in ascending order of Ki. Answer by naming the labels in the order asked.
Response: Q, R, P
(Q: 1.1 µM, R: 25 µM, P: 170 µM)

###

# tgt: Hepatitis C virus serine protease, NS3/NS4A (Hepatitis C virus, UniProt A3EZI9+D2K2A8)
# procedure-text: Inhibition of HCV serine protease NS3/NS4A in the presence of EDTA.
# Format: protein-complex assay, Hepacivirus hominis
pKi: −log10 of the molar value.
quantity: pKi

(1) COC(=O)C(CP(=O)(O)O)NC(=O)c1ccc2[nH]c(C(F)(F)c3nc4ccc(C(=O)NC(CP(=O)(O)O)C(=O)OC)cc4n3C)nc2c1 (stereo not drawn)
(2) Cn1c(C(F)c2nc3c(F)c(F)cc(F)c3[nH]2)nc2ccc(C(=O)NC(CP(=O)(O)O)C(=O)O)cc21 (stereo not drawn)
Request: Which has the smaller recorded pKi, 1 or 2 ? Write down the label of the entry you select.
Response: 2
(2: 4.14, 1: 4.49)

(a) Cn1c(Cc2nc3c(F)cc(F)c(F)c3[nH]2)nc2ccc(C(=O)NC(CP(=O)(O)O)C(=O)O)cc21 (stereo not drawn)
(b) Cn1c(Cc2nc3c(F)c(F)ccc3[nH]2)nc2ccc(C(=O)NC(CP(=O)(O)O)C(=O)O)cc21 (stereo not drawn)
Request: Looking at a and b , which one comes out lower in pKi terms? Kindly give the label for the entry you pick.
Response: b
(b: 3.85, a: 4.66)

(I) COc1ccc2nc(Cc3nc4ccc(C(=O)NC(CP(=O)(O)O)C(=O)O)cc4n3C)[nH]c2c1 (stereo not drawn)
(II) Cn1c(C(F)(F)c2nc3ccc(C(=O)NC(CP(=O)(O)O)C(=O)O)cc3[nH]2)nc2ccc(C(=O)NC(CP(=O)(O)O)C(=O)O)cc21 (stereo not drawn)
Request: Pick one: I or II . Which has the bigger pKi number? Indicate which entry you chose by stating its label.
Response: II

Where these numbers come from: ChEMBL document CHEMBL1134940
